tested on: NCI/ADR-RES; assay: Inhibition of P-gp in human MCF7/ADR cells assessed as increase in intracellular adriamycin accumulation at 20 uM after 3 hrs by flow cytometry; type: cell-based
Active and inactive are the calls of the source. No cut-off for these calls is given here.
recorded_metric: inhibition

compound_string	test_result
CC1=CC[C@@H](OC(=O)c2cccnc2)[C@H]2[C@@]1(C)[C@@H](OC(=O)c1cccnc1)[C@H](OC(=O)c1ccccc1)[C@]1(C)O[C@]3(CC[C@]21C)COC(=O)C3	Active
CC(=O)O[C@H]1[C@H](OC(=O)c2cccnc2)[C@@]2(C)C(C)=CC[C@@H](O)[C@@H]2[C@@]2(C)[C@@H](OC(=O)c3cccnc3)C[C@@]3(COC(=O)C3)O[C@@]12C	Active
CC1=CC[C@@H](OC(=O)c2cccnc2)[C@H]2[C@@]1(C)[C@@H](OC(=O)c1cccnc1)[C@H](OC(=O)c1cccnc1)[C@]1(C)O[C@]3(CC[C@]21C)COC(=O)C3	Active
CC1=CC[C@@H](OC(=O)c2cccnc2)[C@H]2[C@@]1(C)[C@@H](OC(=O)c1cccnc1)[C@H](O)[C@]1(C)O[C@@]3(CC[C@]21C)COC(=O)C3	Active

inhibition for CC1=CC[C@@H](OC(=O)c2cccnc2)[C@H]2[C@@]1(C)[C@H]1O[C@@](O)(C(C)C)C(=O)O[C@@H]1[C@]1(C)O[C@@]3(CC[C@]21C)COC(=O)C3 is Active

====

test system: NCI/ADR-RES; assay: Inhibition of P-gp in human MCF7/ADR cells assessed as increase in intracellular adriamycin accumulation at 20 uM after 3 hrs by flow cytometry; format: cell-based
Calls of active or inactive are those of the source. The rule behind the calls is not given here.
recorded_metric: inhibition

Worked examples follow.
compound	test_target	test_result
CC(=O)O[C@H]1[C@H](OC(=O)c2cccnc2)[C@@]2(C)C(C)=CC[C@@H](OC(=O)c3cccnc3)[C@@H]2[C@@]2(C)CC[C@@]3(COC(=O)C3)O[C@@]12C	NCI/ADR-RES	Active
CC1=CC[C@@H](OC(=O)c2ccccc2)[C@H]2[C@@]1(C)[C@@H](OC(=O)c1cccnc1)[C@H](O)[C@]1(C)O[C@]3(CC[C@]21C)COC(=O)C3 (relative stereo)	NCI/ADR-RES	Active
CC1=CC[C@@H](OC(=O)c2ccccc2)[C@H]2[C@@]1(C)[C@@H](OC(=O)c1cccnc1)[C@H](O)[C@]1(C)O[C@@]3(CC[C@]21C)COC(=O)C3	NCI/ADR-RES	Active
CC(=O)O[C@H]1[C@H](OC(C)=O)[C@]2(C)O[C@@]3(CC[C@]2(C)[C@H]2[C@H](OC(=O)c4cccnc4)CC=C(C)[C@]12C)COC(=O)C3 (relative stereo)	NCI/ADR-RES	Active

Please look at the following compound next.
inhibition for CC(=O)O[C@H]1[C@H](OC(=O)c2cccnc2)[C@@]2(C)C(C)=CC[C@@H](OC(=O)c3cccnc3)[C@@H]2[C@@]2(C)CC[C@]3(COC(=O)C3)O[C@@]12C is Active
